From: paper PMC12443483

assay: Photophysical characterization by absorption and fluorescence spectroscopy; type: physicochemical; conditions: 25 μM probe in CH3CN/PBS pH 7.4
Measured Attribute: ε (molar absorption coefficient at maximum absorption wavelength) (M⁻¹ cm⁻¹)

# Smiles Entry, Observed Measurement
measured = [
    ("CNc1ccc(/C=C/c2c(C)c(=O)n3c(=O)c(C)c(C)n23)cc1", 26400),
    ("Cc1c(C)n2c(/C=C/C=C/c3ccc(N(C)C)cc3)c(C)c(=O)n2c1=O", 36700),
    ("Cc1c(C)n2c(/C=C/c3ccc(N)cc3)c(C)c(=O)n2c1=O", 30800),
    ("Cc1c(C)n2c(/C=C/c3ccc(N(C)C)cc3)c(C)c(=O)n2c1=O", 30400),
]
